Data credit: PubChem BioAssay AID1240

Each entry below lists one item and its recorded displacement value.
Molecular target: Bcl-2-like protein 10 (Homo sapiens) (UniProt Q9HD36)
Sequence (Q9HD36 whole entry, looked up): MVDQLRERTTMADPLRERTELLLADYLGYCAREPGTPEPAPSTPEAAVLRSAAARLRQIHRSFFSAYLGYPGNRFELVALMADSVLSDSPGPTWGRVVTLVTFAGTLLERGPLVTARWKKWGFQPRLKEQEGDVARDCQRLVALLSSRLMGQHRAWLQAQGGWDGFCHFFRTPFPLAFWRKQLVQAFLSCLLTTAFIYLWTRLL
Assay: TR3 peptide-Bcl-B binding displacers, biochemical primary FP assay, phenotype converters (AID 1240);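 also: 0% = Bcl-B with tracer peptide and DMSO and 100% = tracer peptide lacking Bcl-B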
Settings: GST-Bcl-B / FITC-TR3 peptide fluorescence polarization; stronger effect = higher value; compound at 3.75 mg/L
In all, about 50,000 compounds went through this assay and about 800 (1.6%) showed an effect of 50% or more. The list comes from a sample in which strong results are over-represented; it also holds close analogues and randomly drawn compounds.

Please review the entries below; each comes with its answer.
O=C1c2ccccc2C(=O)C1C1=CC(c2ccccc2)C(c2ccccc2)N=N1 (stereo unspecified)	-10%
COc1ccc(C2/C(=C(\O)c3ccc(F)cc3)C(=O)C(=O)N2c2nncs2)cc1 (stereo unspecified)	11%
COc1ccc(C2C(C(=O)c3cccs3)=C(O)C(=O)N2c2nncs2)cc1 (stereo unspecified)	143%

Q: Returns the measured displacement for the input compound. Input: O=C(N1CCCCC1)C12CC3CCC(CC(C3)C1)C2
A: 6.3%

Q: Returns the measured displacement for the input compound. Input: O=C(C1=C(O)C(=O)N(c2nncs2)C1c1ccccc1F)c1cccs1 (stereo unspecified)
A: 129%

Q: Returns the measured displacement for the input compound. Input: Nc1nnc(SCC(=O)N2c3ccccc3Sc3ccccc32)s1
A: -2%

====

Each entry below lists one item and its recorded displacement value.
Molecular target: Bcl-2-like protein 10 (Homo sapiens) (UniProt Q9HD36)
Assay: TR3 peptide-Bcl-B binding displacers, biochemical primary FP assay, phenotype converters (AID 1240);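 also: 0% = Bcl-B with tracer peptide and DMSO and 100% = tracer peptide lacking Bcl-B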
Details: GST-Bcl-B / FITC-TR3 peptide fluorescence polarization; stronger effect = higher value; compound at 3.75 mg/L
Hit rate of the full screen: of about 50,000 compounds, about 800 (1.6%) showed an effect of 50% or more. This is one part of a sample in which strong results are shown more often than they occur.
Please answer in the form of a number followed by its unit of measurement.

O=c1oc2cc([N+](=O)[O-])ccc2nc1/C=C(\O)c1cccc(Br)c1	3%
O=c1/c(=C/c2ccc(C(F)(F)F)cc2)sc2nc3ccccc3n12	2%
CN(C)c1ccc(/C=c2\sc3nc4ccccc4n3c2=O)cc1	107%
O=c1/c(=C/c2cc([N+](=O)[O-])ccc2Cl)sc2nc3ccccc3n12	-7.5%
O=c1/c(=C/c2ccc3c(c2)OCO3)sc2nc3ccccc3n12	69.3%

Okay, next one:
Q: Returns the measured displacement for the input compound. Input: CC(=O)Oc1ccc(/C=c2\sc3nc4ccccc4n3c2=O)cc1
A: 28%

====

Each entry below lists one item and its recorded displacement value.
Target: Bcl-2-like protein 10 (Homo sapiens) (UniProt Q9HD36)
Assay: TR3 peptide-Bcl-B binding displacers, biochemical primary FP assay, phenotype converters (AID 1240);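 also: 0% = Bcl-B with tracer peptide and DMSO and 100% = tracer peptide lacking Bcl-B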
Conditions: GST-Bcl-B / FITC-TR3 peptide fluorescence polarization; stronger effect = higher value; compound at 3.75 mg/L
The whole screen tested about 50,000 compounds, of which about 800 (1.6%) showed an effect of 50% or more. What follows is part of a selection rich in strong results, with near analogues and random picks from the rest.
Hi! Could you send only the number? It should be in %, unit omitted.

Please review the entries below; each comes with its answer.
CN(C1CCS(=O)(=O)C1)S(=O)C12CC3CC(CC(C3)C1)C2 (stereo unspecified)	-4.8
Cc1ccsc1/C=C1\SC(=S)N(C(C)c2ccccc2)C1=O (stereo unspecified)	-6.6
CCOc1ccc(N2C(=O)S/C(=C\c3ccccc3OC)C2=O)cc1	32.7
CCN(CC)c1ccc(C=C(C(C)=O)C(C)=O)c(OC(C)=O)c1	48.6
Cc1ccsc1/C=C1\SC(=S)N(c2c(C)n(C)n(-c3ccccc3)c2=O)C1=O	6.6

Okay, next one:
Q: Returns the measured displacement for the input compound. Input: CCOc1ccc(/C=C2\SC(=O)N(c3ccccc3)C2=O)cc1
A: -1.9

====

Target: Bcl-2-like protein 10 (Homo sapiens)
Assay: TR3 peptide-Bcl-B binding displacers, biochemical primary FP assay, phenotype converters (AID 1240);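 also: 0% = Bcl-B with tracer peptide and DMSO and 100% = tracer peptide lacking Bcl-B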
Details: GST-Bcl-B / FITC-TR3 peptide fluorescence polarization; stronger effect = higher value; compound at 3.75 mg/L
The whole screen tested about 50,000 compounds, of which about 800 (1.6%) showed an effect of 50% or more. The entries come from a sample that favours strong results as a whole.
QUANTITY_KIND: displacement (%)
Hi! Could you send only the number? It should be in %, unit omitted.

O=C1N=c2ccccc2=C1c1sc(Nc2cccc(Cl)c2Cl)nc1O	15.8
CCOc1cc(/C=C2/C(=O)ON=C2c2ccc(Cl)cc2)ccc1OC	118
O=C(O)CSc1nnc2c(n1)[nH]c1ccccc12	3.1
CCOc1ccc(/C=C2/SC(NC(C)=O)=NC2=O)cc1	132
O=C(NCC1CCCO1)c1ccc(C2SCC(=O)N2Cc2ccccc2)cc1 (configuration not stated)	-12.3

Q: Returns the measured displacement for the input compound. Input: COc1ccc(C2=C/C(=C/c3ccc(Cl)cc3)C(=O)O2)cc1OC
A: 105

Q: Returns the measured displacement for the input compound. Input: Cc1ccc(COc2c(Br)cc(/C=C(\C#N)c3nn(-c4ccccc4)c(N)c3C#N)cc2Br)cc1
A: 11.2

Q: Returns the measured displacement for the input compound. Input: CCCN=C(C)c1c(C)[nH]n(-c2nc3ccccc3s2)c1=O
A: 68.8

====

Molecular target: Bcl-2-like protein 10 (Homo sapiens)
Assay: TR3 peptide-Bcl-B binding displacers, biochemical primary FP assay, phenotype converters (AID 1240);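 also: 0% = Bcl-B with tracer peptide and DMSO and 100% = tracer peptide lacking Bcl-B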
Conditions: GST-Bcl-B / FITC-TR3 peptide fluorescence polarization; stronger effect = higher value; compound at 3.75 mg/L
Among all 50,000 compounds or so, about 800 (1.6%) showed an effect of 50% or more. This is one part of a sample in which strong results are shown more often than they occur.
Each entry below lists one item and its recorded displacement value.
Hi! Could you send only the number? It should be in %, unit omitted.

CCOc1ccc(C(=O)Nc2ccc3oc(-c4ccncc4)nc3c2)cc1Cl	-9.5
Cc1ccc(C(=O)NC(NC(=S)Nc2ccccc2Cl)C(Cl)(Cl)Cl)cc1 (stereo not given)	-10.7
COc1cccc(C(=O)Nc2ccc(Cl)c(-c3nc4cc(Cl)ccc4o3)c2)c1	105
CCCC(C)NS(=O)(=O)c1ccccc1[N+](=O)[O-] (stereo not given)	3
O=C(NCC1CCCO1)c1ccc(F)c2ccccc12 (stereo not given)	-13.5
COc1cccc(C(=O)Nc2ccc3oc(-c4ccc(F)cc4Cl)nc3c2)c1	17.1

Q: Returns the measured displacement for the input molecule. Input: O=C(Cn1c2ccccc2c(=O)c2ccccc21)N/N=C/c1cc([N+](=O)[O-])ccc1N1CCCCCC1
A: -7

Q: Returns the measured displacement for the input molecule. Input: O=c1oc(-c2ccco2)nc2cc(Cl)ccc12
A: 56

Q: Returns the measured displacement for the input molecule. Input: O=C(Cn1c2ccccc2c(=O)c2ccccc21)N/N=C/c1cc([N+](=O)[O-])ccc1N1CCCCC1
A: -6.8

Q: Returns the measured displacement for the input molecule. Input: Cc1ccc(C(=O)NC(NC(=S)Nc2cccc3ccccc23)C(Cl)(Cl)Cl)cc1 (stereo not given)
A: 54.9

====

Each entry below lists one item and its recorded displacement value.
Target: Bcl-2-like protein 10 (Homo sapiens) (UniProt Q9HD36)
Assay: TR3 peptide-Bcl-B binding displacers, biochemical primary FP assay, phenotype converters (AID 1240);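 also: 0% = Bcl-B with tracer peptide and DMSO and 100% = tracer peptide lacking Bcl-B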
Settings: GST-Bcl-B / FITC-TR3 peptide fluorescence polarization; stronger effect = higher value; compound at 3.75 mg/L
In all, about 50,000 compounds went through this assay and about 800 (1.6%) showed an effect of 50% or more. The sample holds strong results, similar compounds and a random draw of the others, so the mix is not that of the screen.
Please answer in the form of a number followed by its unit of measurement.

O=C1/C(=C/c2ccc3c(c2)OCO3)SC(=S)N1Cc1ccco1	94.5%

Q: Returns the measured displacement for the input molecule. Input: O=C1/C(=C/c2ccc(Br)cc2)SC(=S)N1Cc1ccco1
A: 104%

Q: Returns the measured displacement for the input molecule. Input: COc1ccc(/C=C2\SC(=S)N(Cc3ccco3)C2=O)cc1OC
A: 21.8%

====

Each entry below lists one item and its recorded displacement value.
Biological target: Bcl-2-like protein 10 (Homo sapiens) (UniProt Q9HD36)
Assay: TR3 peptide-Bcl-B binding displacers, biochemical primary FP assay, phenotype converters (AID 1240);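 also: 0% = Bcl-B with tracer peptide and DMSO and 100% = tracer peptide lacking Bcl-B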
Settings: GST-Bcl-B / FITC-TR3 peptide fluorescence polarization; stronger effect = higher value; compound at 3.75 mg/L
Screen size: about 50,000 compounds; about 800 (1.6%) showed an effect of 50% or more. What follows is part of a selection rich in strong results, with near analogues and random picks from the rest.
Hi! Could you send only the number? It should be in %, unit omitted.

CC(=O)c1ccc(N2CCN(C(=O)c3cccs3)CC2)c(F)c1	-4.6
Cc1ccc(/C=C/C(=O)Nc2cccc3cccnc23)o1	91.4
COc1ccc(-c2cc(C(=O)Nc3ccccc3OC)c3ccccc3n2)cc1	14.2
Cn1nnnc1SCc1ccc(F)cc1	-4

Q: Returns the measured displacement for the input molecule. Input: COc1ccc(/C=C2\SC(=S)N(NC(=O)c3cccnc3)C2=O)cc1
A: 3.4

Q: Returns the measured displacement for the input molecule. Input: Cc1csc(-c2cc3ccc(OCc4c(F)c(F)c(F)c(F)c4F)cc3oc2=O)n1
A: 6.9

Q: Returns the measured displacement for the input molecule. Input: Cc1csc(-c2cc3ccc(O)c(CN4CC5(C)CC4CC(C)(C)C5)c3oc2=O)n1 (stereo unspecified)
A: 138

Q: Returns the measured displacement for the input molecule. Input: Cc1ccc(/C=C/C(=O)Nc2cccc3ccccc23)o1
A: -7.3

Q: Returns the measured displacement for the input molecule. Input: Cc1oc2c(CN3CC4(C)CC3CC(C)(C)C4)c(O)ccc2c(=O)c1-c1nc2ccccc2s1 (stereo unspecified)
A: 11.2

Q: Returns the measured displacement for the input molecule. Input: O=C(Nc1ccc(I)cc1Cl)c1cccc(Cl)c1Cl
A: 11.2

Q: Returns the measured displacement for the input molecule. Input: CCN(CC)c1ccc(NC(=O)c2ccc3ccccc3n2)cc1
A: 1.3
